Value source: patent EP0428132A1

Where a name gives a salt, the structure may show the parent alone.
These records show MIC for Saccharomyces cerevisiae A25803.

COMPOUND: COc1cc(O)c2c(c1)C(=O)c1c(cc3c(c1O)-c1c(cc(C)c(C(=O)N[C@H](C)C(=O)O)c1O)[C@H](O[C@@H]1O[C@H](C)[C@H](N(C)C(=O)[C@@H](N)CCC(=O)O)[C@H](O)[C@H]1O)[C@H]3O)C2=O [Ex. 20, N-(L-glutamyl) pradimicin B formate salt]
MIC, µg/mL: 6.3

COMPOUND: COc1cc(O)c2c(c1)C(=O)c1c(cc3c(c1O)-c1c(cc(C)c(C(=O)N[C@H](C)C(=O)O)c1O)[C@H](O[C@@H]1O[C@H](C)[C@H](N(C)CC(N)=O)[C@H](O)[C@H]1O)[C@H]3O)C2=O
MIC, µg/mL: 0.8

COMPOUND: COc1cc(O)c2c(c1)C(=O)c1c(cc3c(c1O)-c1c(cc(C)c(C(=O)N[C@H](C)C(=O)O)c1O)[C@H](O[C@@H]1O[C@H](C)[C@H](N(C)CC(=O)O)[C@H](O)[C@H]1O)[C@H]3O)C2=O
MIC, µg/mL: 0.8

COMPOUND: CN[C@@H]1[C@H](O[C@@H]2OC[C@@H](O)[C@H](O)[C@H]2O)[C@@H](O)[C@H](O[C@H]2c3cc(C)c(C(=O)N[C@H](C)C(=O)O)c(O)c3-c3c(cc4c(c3O)C(=O)c3cc(OC)cc(O)c3C4=O)[C@@H]2O)O[C@@H]1C [Pradimicin A, reference compound]
MIC, µg/mL: 0.8
